// reported pKd for each item listed
# TEST_SYSTEM: T1, Recombinantly expressed fused calprotectin (His6-linker-S100A9-linker-S100A8), product code B-RCAL, BÜHLMANN Laboratories AG (human), P06702
# T1 chain: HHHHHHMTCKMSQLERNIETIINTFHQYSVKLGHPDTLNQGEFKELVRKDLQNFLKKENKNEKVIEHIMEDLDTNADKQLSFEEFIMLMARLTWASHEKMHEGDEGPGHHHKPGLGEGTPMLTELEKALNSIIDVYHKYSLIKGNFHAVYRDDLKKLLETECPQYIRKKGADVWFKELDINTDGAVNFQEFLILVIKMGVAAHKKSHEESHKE
# EXPERIMENTAL_PROTOCOL: fluorescence polarization
# SETUP_CONDITIONS: modification not given
pKd: −log10 of the molar value.
MEASURED_ATTRIBUTE: pKd

>>> assay_value("RSPESVAFPMFQSHWYSA")
7.51
>>> assay_value("RCPECAAFPMFQCHWYCG")
7.41
>>> assay_value("RCPECVAFPMFQCHAYCG")
7.62
>>> assay_value("RCPECVGFPMFQCHWYCG")
7.54
>>> assay_value("RSPESVGFPMFQSHWYSG")
7.54
>>> assay_value("RSPESVAFAMFQSHWYSG [P9A]")
7.52
>>> assay_value("RSPESAAFPMFQSHWYSG")
7.41
>>> assay_value("RSPASVAFPMFQSHWYSG")
7.59
>>> assay_value("RSAESVAFPMFQSHWYSG")
7.55
>>> assay_value("RCPACVAFPMFQCHWYCG")
7.59
>>> assay_value("RCPECVAFPMFACHWYCG")
7.57
>>> assay_value("RCAECVAFPMFQCHWYCG")
7.55
>>> assay_value("RSPESVAFPMFASHWYSG")
7.57
>>> assay_value("RCPECVAFPMFQCHWYCA")
7.51
>>> assay_value("RSPESVAFPMFQSHAYSG")
7.62

Attribution: patent US20250326807A1
